Test system: NCI-H226 lung
Assay: NCI tumour cell line growth inhibition, 48 h
TGI for assorted molecules

[
  {
    "molecule": "COc1ccc(-n2c(SC(CN3CCOCC3)CN3CCCC3=O)nc3ccccc3c2=O)cc1 (centres undefined)",
    "targetSystem": "NCI-H226 lung",
    "TGI": "> 100 µM"
  },
  {
    "molecule": "Cc1cc2c(c(C(=O)NCC(=O)N[C@@H](C)C(=O)OCc3ccccc3)c1)Oc1c(cc(C)cc1C(=O)NCC(=O)N[C@@H](C)C(=O)OCc1ccccc1)S2",
    "targetSystem": "NCI-H226 lung",
    "TGI": "> 100 µM"
  },
  {
    "molecule": "CC(=O)C1=C(C)O[C@@H]2O[C@H](COCc3ccccc3)[C@@H](OCc3ccccc3)[C@H](O)[C@@H]2S1",
    "targetSystem": "NCI-H226 lung",
    "TGI": "48.6 µM"
  },
  {
    "molecule": "N[C@H]1c2c(Br)sc(Br)c2C(=O)[C@H]1O",
    "targetSystem": "NCI-H226 lung",
    "TGI": "62 µM"
  },
  {
    "molecule": "COc1cccc2c1C(=O)c1c(O)c3c(c(O)c1C2=O)C[C@@](O)(C(C)=O)CC3S(=O)(=O)O (some centres undefined)",
    "targetSystem": "NCI-H226 lung",
    "TGI": "> 100 µM"
  },
  {
    "molecule": "COC(=O)c1ccc2nc(-c3cc4ccccc4n3C)n(CCCCOc3cc4c(cc3OC)C(=O)N3CCC[C@H]3C=N4)c2c1",
    "targetSystem": "NCI-H226 lung",
    "TGI": "8.04 µM"
  },
  {
    "molecule": "CNS(=O)(=O)OCC1OC(n2cnc3cncnc32)C(O)C1O (centres undefined)",
    "targetSystem": "NCI-H226 lung",
    "TGI": "> 100 µM"
  },
  {
    "molecule": "CNC(=O)N(CCC#N)CCN(C(=O)NC)c1ccccc1",
    "targetSystem": "NCI-H226 lung",
    "TGI": "> 100 µM"
  },
  {
    "molecule": "CC(c1cc(Cl)ccc1O)c1cc(Cl)ccc1O",
    "targetSystem": "NCI-H226 lung",
    "TGI": "43.5 µM"
  },
  {
    "molecule": "COc1ccccc1NC(=S)N=Nc1c(O)[nH]c2ccccc12",
    "targetSystem": "NCI-H226 lung",
    "TGI": "> 100 µM"
  },
  {
    "molecule": "CCc1ccccc1NC(=O)C(=O)C(C#N)c1ccccc1Cl (centres undefined)",
    "targetSystem": "NCI-H226 lung",
    "TGI": "> 100 µM"
  },
  {
    "molecule": "O=C(Cc1ccccc1[N+](=O)[O-])C(CO)c1ccccc1[N+](=O)[O-] (centres undefined)",
    "targetSystem": "NCI-H226 lung",
    "TGI": "> 100 µM"
  },
  {
    "molecule": "Cc1ccc([P+](Cc2ccccc2)(c2ccccc2)c2ccccc2)cc1",
    "targetSystem": "NCI-H226 lung",
    "TGI": "> 100 µM"
  },
  {
    "molecule": "Cc1cc2nc3c(C#N)c4c(c(Nc5ccc(F)cc5)n3c2cc1C)CCC4",
    "targetSystem": "NCI-H226 lung",
    "TGI": "> 100 µM"
  }
]
